# TEST_METHOD_NOTES: Whole blood stability
# Assay type: in vitro ADME
# STATED_CONDITIONS: mouse, whole blood, 37° C., time points 0, 1, 2, 4 hr, LC/MS/MS, read-out: Whole Blood Stability (T1/2) hr. Mouse (converted)
OBSERVABLE: half-life at 5 µM (h)
Your answer is read as h, so omit the unit and give the number.

Quick note, half-life at 5 µM for C=CC(=O)N1CCN(c2ncnc3c(F)c(-c4c(O)cccc4F)c(Cl)cc23)CC1 (atropisomer, axis not shown) [A, reference compound] landed at 3.99

Field half-life at 5 µM (entry `C=CC(=O)N1CCN(c2ncnc3c(F)c(-c4c(O)cccc4F)c(Cl)cc23)C[C@@H]1C` ) reads 10.6

Just so you know, measured half-life at 5 µM for `C=CC(=O)N1C[C@H](C)N(c2ncnc3c(F)c(-c4c(O)cccc4F)c(Cl)cc23)[C@@H](C)C1` came out at 9.9

`C=CC(=O)N1CCN(c2ncnc3c(F)c(-c4c(O)cccc4F)c(Cl)cc23)C(C)(C)C1` has a reported half-life at 5 µM of 12.5

// half-life at 5 µM value for C=CC(=O)N1[C@H](C)CN(c2ncnc3c(F)c(-c4c(O)cccc4F)c(Cl)cc23)C[C@@H]1C (atropisomer, axis not shown) : 10.9

For this molecule ( `C=CC(=O)N1[C@@H](C)CN(c2ncnc3c(F)c(-c4c(O)cccc4F)c(Cl)cc23)C[C@@H]1C` ), measured half-life at 5 µM is 8.8
